Molecular target: MERTK (UniProt Q12866)
Sequence (Q12866 whole entry, looked up): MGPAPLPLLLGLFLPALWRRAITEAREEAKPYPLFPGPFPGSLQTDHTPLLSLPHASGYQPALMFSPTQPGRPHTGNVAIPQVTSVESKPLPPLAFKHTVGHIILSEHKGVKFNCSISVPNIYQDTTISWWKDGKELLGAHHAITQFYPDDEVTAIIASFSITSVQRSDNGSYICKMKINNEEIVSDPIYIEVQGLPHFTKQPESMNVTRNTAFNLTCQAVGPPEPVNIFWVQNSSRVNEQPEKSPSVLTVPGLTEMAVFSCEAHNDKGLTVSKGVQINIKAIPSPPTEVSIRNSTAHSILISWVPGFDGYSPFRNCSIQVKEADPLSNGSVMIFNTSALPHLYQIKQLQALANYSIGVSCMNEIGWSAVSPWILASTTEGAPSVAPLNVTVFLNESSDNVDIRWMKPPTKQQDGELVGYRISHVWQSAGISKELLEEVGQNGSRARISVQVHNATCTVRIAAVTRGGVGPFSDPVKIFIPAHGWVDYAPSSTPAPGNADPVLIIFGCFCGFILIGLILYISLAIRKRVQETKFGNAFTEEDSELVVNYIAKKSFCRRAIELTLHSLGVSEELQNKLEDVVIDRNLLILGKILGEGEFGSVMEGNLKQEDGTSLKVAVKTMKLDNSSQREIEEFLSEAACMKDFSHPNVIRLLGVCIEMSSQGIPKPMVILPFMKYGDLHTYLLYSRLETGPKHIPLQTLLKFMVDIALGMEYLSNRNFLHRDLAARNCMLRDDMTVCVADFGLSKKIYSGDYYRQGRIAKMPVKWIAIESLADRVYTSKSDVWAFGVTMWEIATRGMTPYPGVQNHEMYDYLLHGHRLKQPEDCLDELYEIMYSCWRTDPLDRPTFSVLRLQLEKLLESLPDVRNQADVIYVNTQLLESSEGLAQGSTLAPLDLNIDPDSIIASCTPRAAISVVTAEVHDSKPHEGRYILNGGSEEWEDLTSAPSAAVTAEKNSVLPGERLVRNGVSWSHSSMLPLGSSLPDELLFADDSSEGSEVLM
Test: phosphorylation enrichment, bacterial display (enrichment ratio); higher = better substrate or ligand; peptides without Tyr show the background;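 note: 11-residue human phosphosite peptides and single-mutation variants displayed on the E. coli surface, counted by deep sequencing, each peptide's frequency after selection divided by its frequency in the unselected input library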;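 note: frequency after pTyr selection over input frequency; kinase dosed for 20-30% of maximal phosphorylation in three min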
Could you label it true (1) if measured phosphorylation enrichment is 0.6 or higher, and false (0) otherwise?

[
  {
    "Residue String": "AVEDQYYRVDC [FHL1_Y207_C209R]",
    "Experimental System": "MERTK (UniProt Q12866)",
    "Class": "true (1)"
  }
]

Say whether INNIDYYKKTT [FGFR2_Y656] shows phosphorylation enrichment of 0.6 or more.
false (0)

Check this sequence for phosphorylation enrichment at or above 0.6: IDPFIYTPFGS [CYP3A4_Y432_YF]
true (1)

Decide: phosphorylation enrichment of LNERHYGALIG [BPGM_Y92] >= 0.6?
false (0)

Given IKGNMYYENSY [EGFR_Y112_R108K] , state whether its phosphorylation enrichment is at least 0.6.
true (1)

API: above_or_equal(metric=phosphorylation enrichment, cutoff=0.6) for item YVPSFYHAFSG [ACTN4_Y265_S262P]
true (1)
